Listed here are compounds together with their documented activation at 1 µM.
biological target: dopaminergic D3 receptor (Homo sapiens, UniProt P35462); experiment: Cellular functional assay, dopaminergic D3 receptor (agonism/antagonism); format: cell-based; conditions: agonist effect, percent of control specific agonist response (300 nM dopamine for control); 1×10^−6 M; D3 (h), CHO cells; read-out: D3-ag [%]
Sequence (P35462 whole entry): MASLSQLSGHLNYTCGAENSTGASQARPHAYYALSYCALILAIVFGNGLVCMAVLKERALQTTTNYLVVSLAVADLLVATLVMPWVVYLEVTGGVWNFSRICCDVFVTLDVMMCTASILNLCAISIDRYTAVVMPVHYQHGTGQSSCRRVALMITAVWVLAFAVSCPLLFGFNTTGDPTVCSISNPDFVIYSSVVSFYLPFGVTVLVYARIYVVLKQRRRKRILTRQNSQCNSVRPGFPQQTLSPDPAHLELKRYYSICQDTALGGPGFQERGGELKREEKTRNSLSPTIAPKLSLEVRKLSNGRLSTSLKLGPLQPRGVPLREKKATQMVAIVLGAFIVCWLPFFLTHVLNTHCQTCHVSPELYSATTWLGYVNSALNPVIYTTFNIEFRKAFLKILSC
Reply numerically in %, unit not repeated.

INSERT INTO results (compound, tested_target, property_measured, reported) VALUES
  ('Cc1cccc(S(=O)(=O)NCCCN2CCC(c3noc4cc(F)ccc34)CC2)c1 [Compound 22]', 'dopaminergic D3 receptor (Homo sapiens, UniProt P35462)', 'activation at 1 µM', -25),
  ('O=S(=O)(NCCCCN1CCN(c2cccc3[nH]ccc23)CC1)c1cccc(Cl)c1 [Compound 113]', 'dopaminergic D3 receptor (Homo sapiens, UniProt P35462)', 'activation at 1 µM', 39);

Could you share which activation at 1 µM value was measured for O=S(=O)(NCCCN1CCC(c2noc3cc(F)ccc23)CC1)c1ccc(F)c(Cl)c1 [Compound 331] ?
-15

Could you share which activation at 1 µM value was measured for O=S(=O)(NCCCCN1CCC(c2noc3cc(F)ccc23)CC1)c1csc2ccccc12 [Compound 313] ?
8

* * *

tested on: adrenergic α1 receptor; test: Binding assay α1 (non-selective), [3H]prazosin, rat cerebral cortex; details: percent inhibition of control specific binding; compounds tested at 1×10^−6 M
Property measured: α1 [%] (%)
Reply numerically in %, unit not repeated.

Could you share which α1 [%] value was measured for O=C1COc2c(cccc2N2CCN(CCCCNS(=O)(=O)c3ccc(F)cc3)CC2)N1 ?
72

* * *

Molecular target: serotoninergic 5-HT1A receptor (Homo sapiens, UniProt P08908)
Sequence (P08908 1-422): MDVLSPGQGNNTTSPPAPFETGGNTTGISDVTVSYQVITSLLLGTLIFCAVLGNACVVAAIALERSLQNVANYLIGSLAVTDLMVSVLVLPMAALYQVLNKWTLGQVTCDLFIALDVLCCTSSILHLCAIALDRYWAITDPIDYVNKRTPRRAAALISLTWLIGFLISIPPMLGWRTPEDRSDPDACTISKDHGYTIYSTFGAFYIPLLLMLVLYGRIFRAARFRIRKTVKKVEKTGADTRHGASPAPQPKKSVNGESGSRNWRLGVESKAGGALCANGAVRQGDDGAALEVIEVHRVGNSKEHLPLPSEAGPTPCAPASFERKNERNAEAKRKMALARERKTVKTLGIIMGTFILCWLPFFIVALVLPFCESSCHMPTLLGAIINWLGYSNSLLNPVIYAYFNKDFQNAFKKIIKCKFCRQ
Assay: Binding assay 5-HT1A (h), [3H]8-OH-DPAT, HEK-293 cells
Parameters: expressed in transfected cells; host or cells: HEK-293 cells
Conditions: read-out: 5-HT1A
Property measured: inhibition at 1 µM
Note to self: number, then unit, no commentary.

Below, each entry is followed by its recorded inhibition at 1 µM result.
INSERT INTO measurements (sample_smiles, reported) VALUES
  ('O=S(=O)(NCCCCN1CCN(c2nsc3ccccc23)CC1)c1ccc(Br)cc1', '92%'),
  ('O=S(=O)(NCCCN1CCN(c2nsc3ccccc23)CC1)c1ccc(OC(F)(F)F)cc1', '97%'),
  ('O=S(=O)(NCCCCN1CCN(c2cccc3c2OCCO3)CC1)c1cccc(Cl)c1', '101%'),
  ('O=S(=O)(NCCCCN1CCC(c2noc3cc(F)ccc23)CC1)c1ccc2cc(Cl)ccc2c1', '75%'),
  ('O=S(=O)(NCCCN1CCN(c2nsc3ccccc23)CC1)c1ccc2cc(Cl)ccc2c1', '46%');

Could you share which inhibition at 1 µM value was measured for O=S(=O)(NCCCCN1CCN(c2cccc3c2OCCO3)CC1)c1cc2ccc(Cl)cc2s1 ?
103%

Could you share which inhibition at 1 µM value was measured for O=c1[nH]c2cccc(N3CCN(CCCNS(=O)(=O)c4ccc(Cl)cc4)CC3)c2[nH]1 ?
98%

* * *

biological target: serotoninergic 5-HT7 receptor (Homo sapiens); assay: Binding assay 5-HT7 (h), [3H]LSD, CHO cells; parameters: expressed in transfected cells; host or cells: CHO cells; details: read-out: 5-HT7
Sequence (P34969 whole entry): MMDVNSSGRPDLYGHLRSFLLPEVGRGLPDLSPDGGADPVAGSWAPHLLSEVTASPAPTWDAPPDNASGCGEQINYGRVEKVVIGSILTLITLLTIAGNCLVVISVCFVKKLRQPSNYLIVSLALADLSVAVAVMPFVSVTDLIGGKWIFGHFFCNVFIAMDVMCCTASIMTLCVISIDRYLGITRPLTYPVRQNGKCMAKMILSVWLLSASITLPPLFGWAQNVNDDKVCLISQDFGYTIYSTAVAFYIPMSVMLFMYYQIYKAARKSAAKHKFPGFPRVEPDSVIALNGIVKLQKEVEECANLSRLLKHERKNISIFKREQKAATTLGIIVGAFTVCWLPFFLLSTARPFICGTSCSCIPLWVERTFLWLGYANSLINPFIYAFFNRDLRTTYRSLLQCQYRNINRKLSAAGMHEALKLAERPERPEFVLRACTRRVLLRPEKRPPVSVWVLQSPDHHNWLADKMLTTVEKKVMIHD
Property measured: inhibition at 1 µM (%)
Reply numerically in %, unit not repeated.

INSERT INTO assay_data (sample_smiles, property_measured, reported) VALUES
  ('O=S(=O)(NCCCN1CCN(c2nsc3ccccc23)CC1)c1ccc(Cl)cc1', 'inhibition at 1 µM', 88),
  ('O=S(=O)(NCCCCN1CCC(c2noc3cc(F)ccc23)CC1)c1ccc(Cl)c(Cl)c1', 'inhibition at 1 µM', 88),
  ('O=S(=O)(NCCCN1CCN(c2cccc3c2OCCO3)CC1)c1ccc(-c2ccccc2)cc1', 'inhibition at 1 µM', 92),
  ('O=S(=O)(NCCCCN1CCC(c2noc3cc(F)ccc23)CC1)c1cccc2ccccc12', 'inhibition at 1 µM', 99),
  ('O=S(=O)(NCCCN1CCN(c2nsc3ccccc23)CC1)c1cc2ccccc2s1', 'inhibition at 1 µM', 99),
  ('O=S(=O)(NCCCN1CCN(c2cccc3c2OCCO3)CC1)c1csc2ccccc12', 'inhibition at 1 µM', 99),
  ('O=S(=O)(NCCN1CCN(c2nsc3ccccc23)CC1)c1cccc2ccccc12', 'inhibition at 1 µM', 98);

Hello, I am looking for reported inhibition at 1 µM with serotoninergic 5-HT7 receptor (Homo sapiens) for O=S(=O)(NCCCN1CCC(c2noc3cc(F)ccc23)CC1)c1ccc(Br)cc1 . Could you help?
90

* * *

molecular target: dopaminergic D3 receptor (Homo sapiens); test: Binding assay D3 (h), [3H]methyl-spiperone, CHO cells; parameters: expressed in transfected cells; host or cells: CHO cells; details: read-out: D3 [%]
Listed here are compounds together with their documented inhibition at 1 µM.
Reply numerically in %, unit not repeated.

Below, each entry is followed by its recorded inhibition at 1 µM result.
INSERT INTO assay_data (sample_smiles, tested_target, property_measured, reported) VALUES
  ('O=S(=O)(NCCCCN1CCN(c2cccc3c2OCCO3)CC1)c1ccc2ccccc2c1', 'dopaminergic D3 receptor (Homo sapiens)', 'inhibition at 1 µM', 88),
  ('O=C1COc2c(cccc2N2CCN(CCCCNS(=O)(=O)c3ccc4ccccc4c3)CC2)N1', 'dopaminergic D3 receptor (Homo sapiens)', 'inhibition at 1 µM', 104),
  ('Cc1[nH]c2ccc(Cl)cc2c1C1=CCN(CCCNS(=O)(=O)c2cccc3ccccc23)CC1', 'dopaminergic D3 receptor (Homo sapiens)', 'inhibition at 1 µM', 72),
  ('O=S(=O)(NCCCN1CCN(c2cccc3c2OCCO3)CC1)c1ccc2ccccc2c1', 'dopaminergic D3 receptor (Homo sapiens)', 'inhibition at 1 µM', 54),
  ('O=c1[nH]c2ccc(S(=O)(=O)NCCCCN3CCN(c4nsc5ccccc45)CC3)cc2o1', 'dopaminergic D3 receptor (Homo sapiens)', 'inhibition at 1 µM', 98),
  ('O=S(=O)(NCCCCN1CCN(c2nsc3ccccc23)CC1)c1ccc(Cl)cc1', 'dopaminergic D3 receptor (Homo sapiens)', 'inhibition at 1 µM', 90),
  ('Cc1[nH]c2ccc(Cl)cc2c1C1=CCN(CCCCNS(=O)(=O)c2cccc3ccccc23)CC1', 'dopaminergic D3 receptor (Homo sapiens)', 'inhibition at 1 µM', 81),
  ('O=c1[nH]c2ccc(S(=O)(=O)NCCN3CCN(c4nsc5ccccc45)CC3)cc2o1', 'dopaminergic D3 receptor (Homo sapiens)', 'inhibition at 1 µM', 92),
  ('O=S(=O)(NCCCCN1CCN(c2noc3ccccc23)CC1)c1c[nH]c2ncccc12', 'dopaminergic D3 receptor (Homo sapiens)', 'inhibition at 1 µM', 95),
  ('O=c1[nH]c2cccc(N3CCN(CCCCNS(=O)(=O)c4ccc(Cl)cc4)CC3)c2[nH]1', 'dopaminergic D3 receptor (Homo sapiens)', 'inhibition at 1 µM', 94);

Hello, I am looking for reported inhibition at 1 µM with dopaminergic D3 receptor (Homo sapiens) for O=S(=O)(NCCCCN1CCN(c2nsc3ccccc23)CC1)c1cc2ccccc2s1 . Could you help?
102

Hello, I am looking for reported inhibition at 1 µM with dopaminergic D3 receptor (Homo sapiens) for O=S(=O)(NCCCN1CCC(c2noc3cc(F)ccc23)CC1)c1ccc2cn[nH]c2c1 . Could you help?
97

Hello, I am looking for reported inhibition at 1 µM with dopaminergic D3 receptor (Homo sapiens) for O=S(=O)(NCCCCN1CCN(c2cccc3[nH]ccc23)CC1)c1c[nH]c2ncccc12 . Could you help?
96

Hello, I am looking for reported inhibition at 1 µM with dopaminergic D3 receptor (Homo sapiens) for O=S(=O)(NCCCCN1CCN(c2nsc3ccccc23)CC1)c1ccc(Br)cc1 . Could you help?
95

Hello, I am looking for reported inhibition at 1 µM with dopaminergic D3 receptor (Homo sapiens) for O=S(=O)(NCCCN1CCN(c2nsc3ccccc23)CC1)c1ccc(-c2ccccc2)cc1 . Could you help?
98

Hello, I am looking for reported inhibition at 1 µM with dopaminergic D3 receptor (Homo sapiens) for O=S(=O)(NCCCN1CC=C(c2c[nH]c3ccc(F)cc23)CC1)c1cccc(O)c1 . Could you help?
100
